system: LOX IMVI melanoma; assay: NCI-60 one-dose screen, 48 h; details: 10 µM unless noted
This is part of a sample that, as a whole, favours compounds with a hit. Of some 83,000 tested, about 20% had one in any assay. Calls of active or inactive are those of the source. How the source made its calls: active means growth percent below 10; inactive means the rest.
Log the outcome using a class from y for active, n for inactive

## Task In this assay, the call recorded for COc1ccc(-c2c3c(N)c4c(nc3nc3c2c(C)nn3-c2ccccc2)CCCCC4)cc1 was what?
## Result n

## Task Same thing, different molecule: Cc1cc(C)c(S(=O)O)c(C)c1
## Result n

## Task # iterate: CCCCCCCC/C=C\CCCCCCCCOc1cccc(CC(=O)NCC[N+](C)(C)C)c1
## Result n

## Task Can you handle COCCOC1=C(Cl)C(=O)c2ccccc2C1=O next?
## Result n

## Task Continue with CC(=O)Nc1ccc(S(=O)(=O)N/N=C\c2ccc(Cl)c(Cl)c2)cc1
## Result n

## Task Same again, this time with CN1CCc2cccc3c2C1Cc1ccc(O)c(O)c1-3 (stereo not drawn)
## Result n

## Task Same lookup for CCN1CCN(c2nc3ccccc3c3c(=O)c4cc(F)ccc4sc23)CC1 , please.
## Result n

## Task Also check CC(=O)Nc1ccccc1-c1n[nH]c(=O)[nH]c1=O
## Result n

## Task Check COC(=O)c1c2c(c(C)[n+]([O-])c1C)C(=O)C(NCc1ccc(O)cc1)=CC2=O too.
## Result y

## Task Likewise for COc1cccc2c(=O)c3c(sc12)c(NCCN(C)C)nc1ccccc13 ?
## Result y

## Task Lookup COc1ccc(-c2[nH]ncc2Nc2cc(OC)c(OC)c(OC)c2)cc1
## Result n

## Task Now consider COC(=O)c1c2c(c(C)[n+]([O-])c1C)C(=O)C=C(NCc1ccc(F)c(Cl)c1)C2=O and answer again.
## Result y

## Task How about this molecule: COc1ccccc1CNCCCCCCCCCCCCN1C(=O)c2ccc3c4c(ccc(c24)C1=O)C(=O)N(CCCCCCCCCCCCNCc1ccccc1OC)C3=O
## Result n

----------
test system: SK-MEL-28 melanoma; experiment: NCI-60 one-dose screen, 48 h (100 = growth as untreated, 0 = no growth, -100 = all killed); details: 10 µM unless noted
This is part of a sample that, as a whole, favours compounds with a hit. Of some 83,000 tested, about 20% had one in any assay. Activity calls are given as the source filed them. The calls were made as follows: active = growth percent below 10; inactive = the rest.
Value Kind: growth

## Task May I ask what growth has been recorded for CC(C)OC1=C(Cl)C(=O)c2ccccc2C1=O ?
## Result 101% (inactive)

## Task Query Cc1ccc(S(=O)(=O)N(c2ccc(Cl)cc2)c2ccc(Br)cc2C(=O)O)cc1 next
## Result 119% (inactive)

## Task Field entry: CCN1CCN(c2ccc(Nc3ncc4ccc5ncn(C(C)C)c5c4n3)nc2)CC1
## Result -13.7% (active)

## Task Now give it for Cc1nc2cc(Nc3nc(Nc4ccc(F)cc4)nc(N4CCN(C)CC4)n3)ccc2n1Cc1ccccc1 too.
## Result -67.4% (active)

## Task Next record, please: O=C(Nc1ccc(F)cc1)c1ccc(C(=O)Nc2ccc(F)cc2)cc1
## Result 98.6% (inactive)

Continuing:
## Task Quick one: growth for Clc1ccccc1Nc1ccc2nnc(-c3ccncc3)n2n1 ?
## Result 122% (inactive)

## Task For COC(=O)[C@@H]1CCCN1C(=O)[C@@H]1CCCN1C(=O)[C@@H](Cc1c[nH]c2ccccc12)NC(=S)Nc1cc(C(F)(F)F)cc(C(F)(F)F)c1 then?
## Result 33.7% (inactive)

----------
test system: SK-MEL-2 melanoma; test: NCI-60 one-dose screen, 48 h; conditions: 10 µM unless noted
This is part of a sample that, as a whole, favours compounds with a hit. Of some 83,000 tested, about 20% had one in any assay. Calls of active or inactive are those of the source. Rule for the calls: active = growth percent below 10; inactive = the rest.
Please answer using one outcome listed in active, inactive

// below: answered compounds
## Task Which result was noted for this compound in the test: O=C1CCC(N2Cc3c(C#CCCCNC(=O)c4cc5c(o4)C(=O)c4ccccc4C5=O)cccc3C2=O)C(=O)N1 (stereo unspecified)
## Result active

## Task Same read-out for Cc1nc2cc(Nc3nc(NCCN)nc(Nc4ccc(F)cc4)n3)ccc2n1Cc1ccccc1 ?
## Result inactive

## Task What do we get for FC(F)(F)c1ccc2c(c1)n1cnnc1c1nncn21 ?
## Result inactive

## Task Okay, and O=C(N/N=C(\CS(=O)(=O)c1ccccc1)c1cc2ccccc2oc1=O)c1ccccc1 ?
## Result inactive

***
## Task Hi, do you know how CCN1CCN(c2nc3ccccc3c3c(=O)c4cc(F)ccc4sc23)CC1 came out in this test?
## Result inactive

## Task Continue with Cc1ccc2c(c1)c(Sc1ccc(C(=O)NO)cc1)c1n2CN(C)CC1
## Result active

## Task And for Clc1ccc(Nc2ccnc(N3CCN(c4ccnc5cc(Cl)ccc45)CC3)n2)cc1 ?
## Result inactive

## Task Now the compound COc1ccc(-c2nc(Nc3ccc(F)cc3)nc(Nc3ccc4c(c3)nc(C)n4Cc3ccccc3)n2)cc1
## Result inactive

## Task Follow-up item: COc1cc(-c2ccc3cc(OC)c(OC)c(OC)c3c2)cc(OC)c1OC
## Result inactive

## Task Follow-up entry: CCCCCCCCCCCCCCn1c2ccccc2c2c3c(c4c5cc(OC)ccc5oc4c21)C(=O)NC3=O
## Result inactive

----------
test system: K-562 leukemia; assay: NCI-60 one-dose screen, 48 h (100 = growth as untreated, 0 = no growth, -100 = all killed); settings: 10 µM unless noted
This is part of a sample that, as a whole, favours compounds with a hit. Of some 83,000 tested, about 20% had one in any assay.
Value Kind: growth (%)
Write the number in % without appending the unit.

Please review the following examples before continuing.
## Task Find the recorded growth belonging to COC(=O)c1ccc(C(=O)Nc2ccccc2N)cc1 and report it.
## Result 73.3

## Task Please do the same for O=c1[nH]c(=S)[nH]c(=O)n1Cc1cccc2ccccc12 as well.
## Result 90.1

Further cases:
## Task Data request, read-out growth, for COc1ccc(/C=C2\CN(Cc3cn(CCCNc4ccnc5cc(Cl)ccc45)nn3)C/C(=C\c3ccc(OC)cc3)C2=O)cc1
## Result 63.2

## Task Now the compound NC(=O)c1cc(Cl)ccc1NC(=O)COc1ccccc1
## Result 18.1

## Task Then this compound: CC(=O)Nc1ccccc1-c1n[nH]c(=O)[nH]c1=O
## Result 107

## Task # repeat for COc1cc(C(F)(F)F)ccc1-c1cc(-c2ccc(F)cc2)n[nH]1
## Result 97.5

## Task Another: O=C(N/N=C/c1ccc(F)cc1)c1[nH]c2ccc(I)cc2c1-c1ccccc1
## Result 75.4

## Task Consider next the compound Cc1nc2cc(Nc3nc(N4CCCCC4)nc(N4CCOCC4)n3)ccc2n1Cc1ccccc1 in the same way.
## Result 84.3

## Task Subsequent entry: C=CC[P+](c1ccccc1)(c1ccccc1)c1ccccc1
## Result 27.2

## Task Note, next up: O=c1oc2ccccc2cc1-c1csc(N=Nc2c(O)[nH]c3ccc(Br)cc23)n1
## Result 111

## Task Next compound: COc1ccc(C(=O)COc2cccc(/C=C3\CSc4ccc(C)cc4C3=O)c2)cc1
## Result 29.3

## Task Again, but for Nc1nc(N)c(C=Nc2ccc(Br)cc2)c(Nc2ccc(Br)cc2)n1
## Result 92.2

## Task Quick one: COc1cc(C2C3=C(COC3=O)N(CCO)c3cc4c(cc32)OCO4)cc(OC)c1O (stereo not drawn)
## Result 27.9

----------
test system: OVCAR-3 ovarian; assay: NCI-60 one-dose screen, 48 h (100 = growth as untreated, 0 = no growth, -100 = all killed); conditions: 10 µM unless noted
About 83,000 compounds went through this panel and 20% of them were active in at least one assay; those are over-represented in the sample as a whole.
Here, each record is paired with measured growth data.
Just the number please, in %, no unit attached.

The examples below pair each entry with its known result.
## Task Would you kindly share the measured growth for COc1ccc(/C=N/NC(=O)c2cnn3c2NC(c2ccccc2)C3)cc1OC1CCCC1 (centres undefined) ?
## Result 106

## Task How about this molecule: CNc1ccc(Br)cc1-c1n[nH]c(=O)[nH]c1=O
## Result 116

## Task Can you handle O=C1c2[nH]cc(CN[C@@H]3CCCN3)c2C(=O)c2c1c(O)c1ccccc1c2O next?
## Result -95.9

## Task Follow-up entry: COc1cc(C(=O)N(C(C)C)C2CCCCC2)cc(OC)c1OC
## Result 113

## Task Note, next up: O=c1oc2ccccc2cc1-c1csc(N/N=C/c2cc3ccccc3nc2Cl)n1
## Result 108

## Task Follow-up item: Cn1c2ccc(Cl)cc2c2nn(C(=O)c3ccccc3)c(=O)nc21
## Result 111

New cases:
## Task # query: growth of entry Cn1cc(C(=O)NCCC(=N)N)cc1NC(=O)CN=C(N)N
## Result 112

## Task Would you kindly repeat that for CCOC(=O)c1c(-c2cc(OC)c(OC)c(OC)c2)csc1N ?
## Result 96.4

## Task Input Cc1ccc(C)c2c1sc1nc3nc4sc5ccccc5n4c(=N)c3c(=O)n12
## Result 89.4
